Molecular target: T1, canine NGF tagged at the C-terminus with the Flag tag (canine, UniProt A0A8I3PYI3 122-241)
T1 construct: mature; Expressed with baculovirus technology; also called feline NGF (processed form identical)
T1 sequence (A0A8I3PYI3 entry or part of it): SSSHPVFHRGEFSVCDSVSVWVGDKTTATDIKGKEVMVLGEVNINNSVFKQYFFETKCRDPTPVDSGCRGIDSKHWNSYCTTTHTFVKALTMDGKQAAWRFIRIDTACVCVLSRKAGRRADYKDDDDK
Test: SPR off-rate screen, Fab-SASA on BSA chip
// boundary case: kon equal to 300000 M⁻¹ s⁻¹ maps to Condition not met; strictly smaller maps to Condition met

Binder	Category Label
felinized clone 101 Fab-SASA variant T30N (VH) (Fab, V domains shown, not shown: small tags and cut ends) VH: DVQLVESGGDLVKPGGSLRLTCVASGLSLNSSSMSWVRQAPGKGLQWVSTIYSNGGTYYTDSVKGRFTISKDNAENTLYLQMNNLKTEDTATYYCASIYYYDADYLHWYFDFWGQGALVTVSS VL: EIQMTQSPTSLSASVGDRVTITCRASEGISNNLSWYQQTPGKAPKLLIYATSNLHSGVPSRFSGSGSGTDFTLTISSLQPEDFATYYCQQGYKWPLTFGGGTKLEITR	Condition not met
felinized clone 101 Fab-SASA variant D104Q (VH) (Fab, V domains shown, not shown: small tags and cut ends) VH: DVQLVESGGDLVKPGGSLRLTCVASGLSLTSSSMSWVRQAPGKGLQWVSTIYSNGGTYYTDSVKGRFTISKDNAENTLYLQMNNLKTEDTATYYCASIYYYDAQYLHWYFDFWGQGALVTVSS VL: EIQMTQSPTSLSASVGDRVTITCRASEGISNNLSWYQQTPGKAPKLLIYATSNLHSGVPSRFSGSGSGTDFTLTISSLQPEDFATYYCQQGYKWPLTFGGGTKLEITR	Condition met
felinized clone 101 Fab-SASA variant S28H (VH) (Fab, V domains shown, not shown: small tags and cut ends) VH: DVQLVESGGDLVKPGGSLRLTCVASGLHLTSSSMSWVRQAPGKGLQWVSTIYSNGGTYYTDSVKGRFTISKDNAENTLYLQMNNLKTEDTATYYCASIYYYDADYLHWYFDFWGQGALVTVSS VL: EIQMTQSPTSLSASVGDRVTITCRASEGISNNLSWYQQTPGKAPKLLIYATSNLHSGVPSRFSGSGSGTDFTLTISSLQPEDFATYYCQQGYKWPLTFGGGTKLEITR	Condition not met

Lab note: kon threshold 300000 M⁻¹ s⁻¹. Does this binder come in strictly under it? felinized clone 101 Fab-SASA variant F112P (VH) (Fab, V domains shown, not shown: small tags and cut ends) VH: DVQLVESGGDLVKPGGSLRLTCVASGLSLTSSSMSWVRQAPGKGLQWVSTIYSNGGTYYTDSVKGRFTISKDNAENTLYLQMNNLKTEDTATYYCASIYYYDADYLHWYFDPWGQGALVTVSS VL: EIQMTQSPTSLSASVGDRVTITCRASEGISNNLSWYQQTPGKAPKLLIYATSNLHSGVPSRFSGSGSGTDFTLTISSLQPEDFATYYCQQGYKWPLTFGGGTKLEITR
Condition not met
